- Experimental protocol: NCI Yeast Anticancer Drug Screen. Data for the cln2 rad14 strain (AID 165);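 note: 0% = growth equal to vehicle treated cultures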
- Test context: S. cerevisiae cln2 rad14 strain, at 50.0 µM, hits give high values
The panel holds about 79,000 compounds, 15% with a hit somewhere; the sample as a whole holds those more often.
Readout name: growth inhibition (%)
Write the answer as a number in %, unit excluded.

Example cases with answers are listed next.
{"columns": ["Compound", "Unit abbreviation", "growth inhibition"],
 "data": [
  ["CC[N+](C)(C)c1ccc(C)c(OC(=O)NC)c1", "%", -24.8],
  ["C1CN2CCOC2O1", "%", 4.65],
  ["CCN(CC)c1ccc([P+](=O)O)cc1", "%", -27.6],
  ["NC(=O)OC(CCl)CCl", "%", -13.3],
  ["COC(=O)COC1CC[CH-]CC1.[Cl-].[Cl-].[Cl-].[Cl-].[Cl-].[Sb+5].c1ccncc1", "%", 17.6],
  ["COc1cc2c(cc1OC)CC[N+](C)=C2", "%", -2.45],
  ["CC(I)C(N)=O (configuration not stated)", "%", -4.15],
  ["Nc1nc(-c2cccc(S(=O)(=O)F)c2)cs1", "%", 41.5]
]}

Kindly review the next compound as well.
growth inhibition reported for this compound COc1cc(C=C2C(=O)NC(=S)NC2=O)cc(OC)c1OC : 18.6
